test: Phase 1 SAD/MAD study of inhaled compound 1 in healthy subjects; format: in vivo, human; conditions: human, plasma, inhaled or intranasal, 3 mg, healthy subjects, inhaled 3 mg QD, Day 7, mean; read-out: AUC0-24
parameter: AUC(0-t) (ng·h/mL)
Answer format: numeric, ng·h/mL implied, no suffix.

CCc1cc(O)ccc1-c1ccc2c(-c3nc4c([nH]3)CN(C(C)C)[C@H](C(=O)N3CC(N(C)C)C3)C4)n[nH]c2c1 has a reported AUC(0-t) of 52.3

* * *

assay: Phase 1 SAD/MAD study of inhaled compound 1 in healthy subjects; assay type: in vivo, human; conditions: human, plasma, inhaled or intranasal, 10 mg, healthy subjects, inhaled 10 mg QD, Day 1, mean; read-out: AUC0-24
parameter: AUC(0-t) (ng·h/mL)
Quick reminder: number only, in ng·h/mL, skip the unit.

Kindly note the recorded AUC(0-t) for CCc1cc(O)ccc1-c1ccc2c(-c3nc4c([nH]3)CN(C(C)C)[C@H](C(=O)N3CC(N(C)C)C3)C4)n[nH]c2c1 , which is 191

* * *

test: Phase 1 SAD/MAD study of inhaled compound 1 in healthy subjects; assay type: in vivo, human; settings: human, plasma, inhaled or intranasal, 3 mg, healthy subjects, inhaled 3 mg QD, Day 1, mean; read-out: AUC0-24
parameter: AUC(0-t) (ng·h/mL)
Give just the number in ng·h/mL; leave the unit off.

response.value for CCc1cc(O)ccc1-c1ccc2c(-c3nc4c([nH]3)CN(C(C)C)[C@H](C(=O)N3CC(N(C)C)C3)C4)n[nH]c2c1 (field: AUC(0-t)) = 48.1
